src = patent US12410160B2

measurement-target: KHK-C expressed in NRK-52E cells (Homo sapiens (Human), UniProt P50053)
Sequence (P50053 whole entry): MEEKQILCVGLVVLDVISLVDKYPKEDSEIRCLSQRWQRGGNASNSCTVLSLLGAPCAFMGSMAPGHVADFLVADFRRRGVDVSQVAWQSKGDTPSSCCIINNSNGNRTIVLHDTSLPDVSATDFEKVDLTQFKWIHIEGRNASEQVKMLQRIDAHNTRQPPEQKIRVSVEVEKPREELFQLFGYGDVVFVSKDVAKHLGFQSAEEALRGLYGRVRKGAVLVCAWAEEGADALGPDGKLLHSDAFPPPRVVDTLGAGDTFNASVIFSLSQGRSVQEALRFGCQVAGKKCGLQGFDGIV
protocol-text: KHK-C Cell-based Assay (EC50), NRK CTG, fructose-mediated ATP-depletion
assay-metric: EC50 (nM)

Reference set (2 entries):
compound: C[C@H]1CCN1c1nc2c(c(-c3ccc4c(N)nc(N)nc4c3)n1)CCC2
EC50, nM: 35.3
--
compound: C[C@H]1CCN1c1nc2c(c(-c3ccc4c(c3)S(=O)(=O)NC4)n1)CCC2
EC50, nM: 29.8

a = C[C@H]1CCN1c1nc2c(c(-c3cc4c(C(N)=O)cccc4[nH]3)n1)CCC2
b = C[C@H]1[C@H](O)CN1c1nc(-c2ccc3c(c2)C(=O)N(C)C3)c2c(n1)C(F)(F)CC2
Would you kindly point out which of a and b has the smaller EC50 figure? When you have decided, please share the label of that item. b

1 = C[C@H]1CCN1c1nc2c(c(-c3ccc4c(c3)CC(C(N)=O)C4)n1)CCC2 (some centres unmarked)
2 = C[C@H]1CCN1c1nc2c(c(-c3ccc(S(N)(=O)=O)cc3)n1)CCC2
Field: entry with larger EC50 (options 1 / 2 ). Selection: enter the item's label. 1

I = COc1ccc(-c2nc(N3C[C@@H](O)[C@@H]3C)nc3c2CCC3(F)F)cc1[S@](C)(=N)=O (single isomer, unassigned)
II = C[C@H]1CCN1c1nc2c(c(-c3cccc(C(=O)NCC(=O)O)c3)n1)CCC2
Could you kindly indicate whether I or II has the higher EC50 value? To answer, give the label that identifies your chosen option. II

a = C[C@H]1[C@H](O)CN1c1nc(-c2cccc([S@](C)(=N)=O)c2)c2c(n1)C(F)(F)CC2 (single isomer, unassigned)
b = C[C@H]1[C@H](O)CN1c1nc2c(c(-c3ccc(CNS(C)(=O)=O)s3)n1)CCC2
c = C[C@H]1[C@H](O)CN1c1nc(-c2ccc(C3(N)COC3)c(F)c2)c2c(n1)C(F)(F)CC2
d = COc1ccc(-c2nc(N3CC(F)(F)[C@@H]3C)nc3c2CCC3(F)F)cc1[S@@](C)(=N)=O
Order these by EC50, descending, and give the full ranking. Rank the items, then write their labels in that order. b, a, c, d

---

measurement-target: human KHK-C (Homo sapiens (Human))
Sequence (P50053 whole entry): as above
protocol-text: KHK Biochemical Assay (IC50), ADP-Glo, KHK-C
condition-notes: ADP-Glo; average of at least two separate assays
assay-metric: IC50 (nM)

compound: C[C@H]1[C@H](O)CN1c1nc2c(c(-c3cccc(C4CC4C(N)=O)c3)n1)CCC2 (stereo partly shown) [Example 112]
IC50 (nM): 68.8

compound: C[C@H]1CCN1c1nc2c(c(-c3cc4c(N)nn(C(=O)OC(C)(C)C)c4cn3)n1)CCC2 [Example 868]
IC50 (nM): 230

compound: C[C@H]1CCN1c1nc2c(c(-c3ccc(S(N)(=O)=O)cc3)n1)CCC2 [Example 189]
IC50 (nM): 61.7

A = C[C@H]1CCN1c1nc2c(c(-c3cccc(CCC(N)=O)c3)n1)CCC2 [Example 29]
B = C[C@@H](O)C(=O)NCc1cccc(-c2nc(N3CC[C@@H]3C)nc3c2CCC3)c1 [Example 229]
C = C[C@H]1CCN1c1nc2c(c(-c3ccnnc3)n1)CCC2 [Example 343]
D = COc1ccc(-c2nc(N3C[C@@](C)(O)[C@@H]3C)nc3c2CCC3(F)F)cc1[S@@](C)(=N)=O [Example 828]
E = C[C@H]1CCN1c1nc2c(c(-c3ccc4[nH]c(C(N)=O)cc4c3)n1)CCC2 [Example 184]
Rank items: key IC50, increasing. Output spec: a listing of the labels in the requested order. D, A, B, E, C

a = C[C@H]1CCN1c1nc2c(c(-c3ccc(CN4CCOCC4)cc3)n1)CCC2 [Example 367]
b = C[C@H]1CCN1c1nc(-c2ccc3c(=O)[nH]ccc3c2)c2c(n1)C(F)(F)CC2 [Example 317]
Please indicate which entry, a or b , has the lower recorded IC50 value. Field: selected label. Fill in the label of the entry you choose. b

A = CNC(=O)c1ccc(-c2nc(N3C[C@@H](O)[C@@H]3C)nc3c2CCC3(F)F)cc1 [Example 171]
B = C[C@H]1CCN1c1nc2c(c(-c3cccc(CC(=O)O)c3)n1)CCC2 [Example 6]
Name the one with the greater IC50 value, either A or B as given. Could you answer with the label of the item you picked? B

1 = C[C@H]1[C@H](O)CN1c1nc2c(c(-c3cccc(C4CC4C(=O)O)c3)n1)CCC2 (stereo partly shown) [Example 47]
2 = C[C@H]1[C@H](O)CN1c1nc2c(c(-c3ccc4cnc(O)cc4c3)n1)CCC2 [Example 388]
Please state the entry with greater IC50 among 1 and 2 . Which one? Tell me its label. 2
